Entries and their measured protein stability index follow.
B1: VTI1B (parent)
chain: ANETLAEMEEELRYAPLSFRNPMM

Variants of: B1
method_summary: protein stability index of a GFP-peptide fusion (GPS, HEK-293T) (PSI 1-6); higher = more stable;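 also: lentivirally expressed fusions sorted by FACS into six bins by GFP to DsRed ratio, PSI derived from sequencing read proportions per bin multiplied by bin number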
stated_conditions: c terminus: a fixed tail appended
observation_type: protein stability index

[[record]]
variant_name = "M8N"
observed_value = 2.72

[[record]]
variant_name = "M24N"
observed_value = 3.2

[[record]]
variant_name = "L5S"
observed_value = 2.96

[[record]]
variant_name = "E10P"
observed_value = 2.73

[[record]]
variant_name = "E11M"
observed_value = 2.45

[[record]]
variant_name = "S18N"
observed_value = 2.23

[[record]]
variant_name = "A15E"
observed_value = 3.56

[[record]]
variant_name = "N21E"
observed_value = 3.95

[[record]]
variant_name = "R13E"
observed_value = 2.11

[[record]]
variant_name = "E9M"
observed_value = 2.19

[[record]]
variant_name = "N21L"
observed_value = 3.13

